Below, each of the compounds is paired with its reported BPB translocation (%) value.
Test system: JEG-3 cells
RECORDED CONDITIONS: 10 µM on apical side, 24 h incubation; percentage of compound in the basolateral side
Peptide text beside a SMILES is read from it. * marks the point of attachment. X3 = C=CC1=C(C)c2cc3[nH]c(cc4nc(cc5[nH]c(cc1n2)c(C)c5CCC(=O)O)C(CCC(=O)*)=C4C)c(C)c3C=C; X2 = CCC1=C(C)c2cc3[nH]c(cc4nc(cc5[nH]c(cc1n2)c(C)c5CCC(=O)O)C(CCC(=O)*)=C4C)c(C)c3CC; X4 = CCC1=C(C)c2cc3[nH]c(cc4nc(cc5[nH]c(cc1n2)c(C)c5CCC(=O)*)C(CCC(=O)O)=C4C)c(C)c3CC
Enter your answer as a number in %; do not include the unit.

Use the examples below as a reference point.
- COMPOUND: "CCC1=C(C)c2cc3[nH]c(cc4nc(cc5[nH]c(cc1n2)c(C)c5CCC(=O)N[C@@H](CO)C(=O)NCC(=O)N[C@H](C(=O)N[C@@H](CCC(N)=O)C(=O)N[C@@H](CCC(=O)O)C(=O)N[C@@H](CCC(=O)O)C(=O)N[C@@H](Cc1ccc(O)cc1)C(N)=O)[C@@H](C)O)C(CCC(=O)O)=C4C)c(C)c3CC [MP-P3] (X4-SGTQEEY-NH2)"
  BPB translocation (%): 14.2
- COMPOUND: "CCC1=C(C)c2cc3[nH]c(cc4nc(cc5[nH]c(cc1n2)c(C)c5CCC(=O)O)C(CCC(=O)NCCCC[C@H](NC(=O)[C@H](Cc1ccc(O)cc1)NC(=O)[C@H](CCC(=O)O)NC(=O)[C@H](CCC(=O)O)NC(=O)[C@H](CCC(N)=O)NC(=O)[C@@H](NC(=O)CNC(=O)[C@@H](N)CO)[C@@H](C)O)C(N)=O)=C4C)c(C)c3CC [Compound P4-MP] (H-SGTQEEYK(X2)-NH2)"
  BPB translocation (%): 13

Now consider the entry below.
BPB translocation (%) for C=CC1=C(C)c2cc3[nH]c(cc4nc(cc5[nH]c(cc1n2)c(C)c5CCC(=O)O)C(CCC(=O)N[C@@H](CO)C(=O)NCC(=O)N[C@H](C(=O)N[C@@H](CCC(N)=O)C(=O)N[C@@H](CCC(=O)O)C(=O)N[C@@H](CCC(=O)O)C(=O)N[C@@H](Cc1ccc(O)cc1)C(N)=O)[C@@H](C)O)=C4C)c(C)c3C=C [PP-P3] (X3-SGTQEEY-NH2) is 18.9

---

System: HBEC-5i cells
RECORDED CONDITIONS: 10 µM on apical side, 24 h incubation; percentage of compound in the basolateral side
Peptide text beside a SMILES is read from it. * marks the point of attachment. X3 = C=CC1=C(C)c2cc3[nH]c(cc4nc(cc5[nH]c(cc1n2)c(C)c5CCC(=O)O)C(CCC(=O)*)=C4C)c(C)c3C=C; X4 = CCC1=C(C)c2cc3[nH]c(cc4nc(cc5[nH]c(cc1n2)c(C)c5CCC(=O)*)C(CCC(=O)O)=C4C)c(C)c3CC
PROPERTY LABEL: BBB translocation (%)
Enter your answer as a number in %; do not include the unit.

- MOLECULE: "CCC1=C(C)c2cc3[nH]c(cc4nc(cc5[nH]c(cc1n2)c(C)c5CCC(=O)N[C@@H](CO)C(=O)NCC(=O)N[C@H](C(=O)N[C@@H](CCC(N)=O)C(=O)N[C@@H](CCC(=O)O)C(=O)N[C@@H](CCC(=O)O)C(=O)N[C@@H](Cc1ccc(O)cc1)C(N)=O)[C@@H](C)O)C(CCC(=O)O)=C4C)c(C)c3CC [MP-P3] (X4-SGTQEEY-NH2)"
  BBB translocation (%): 46.6

Now consider the entry below.
BBB translocation (%) for C=CC1=C(C)c2cc3[nH]c(cc4nc(cc5[nH]c(cc1n2)c(C)c5CCC(=O)O)C(CCC(=O)N[C@@H](CO)C(=O)NCC(=O)N[C@H](C(=O)N[C@@H](CCC(N)=O)C(=O)N[C@@H](CCC(=O)O)C(=O)N[C@@H](CCC(=O)O)C(=O)N[C@@H](Cc1ccc(O)cc1)C(N)=O)[C@@H](C)O)=C4C)c(C)c3C=C [PP-P3] (X3-SGTQEEY-NH2) is 43.2

---

Tested on: JEG-3 cells
RECORDED CONDITIONS: JEG-3, concentrations of up to 50 µM, 24 h
Peptide text beside a SMILES is read from it. * marks the point of attachment. X1 = C=CC1=C(C)c2cc3[nH]c(cc4nc(cc5[nH]c(cc1n2)c(C)c5CCC(=O)*)C(CCC(=O)O)=C4C)c(C)c3C=C; X2 = CCC1=C(C)c2cc3[nH]c(cc4nc(cc5[nH]c(cc1n2)c(C)c5CCC(=O)O)C(CCC(=O)*)=C4C)c(C)c3CC; X4 = CCC1=C(C)c2cc3[nH]c(cc4nc(cc5[nH]c(cc1n2)c(C)c5CCC(=O)*)C(CCC(=O)O)=C4C)c(C)c3CC

- MOLECULE: "CCC1=C(C)c2cc3[nH]c(cc4nc(cc5[nH]c(cc1n2)c(C)c5CCC(=O)N[C@@H](CO)C(=O)NCC(=O)N[C@H](C(=O)N[C@@H](CCC(N)=O)C(=O)N[C@@H](CCC(=O)O)C(=O)N[C@@H](CCC(=O)O)C(=O)N[C@@H](Cc1ccc(O)cc1)C(N)=O)[C@@H](C)O)C(CCC(=O)O)=C4C)c(C)c3CC [MP-P3] (X4-SGTQEEY-NH2)"
  altered cell viability: "none"
- MOLECULE: "CCC1=C(C)c2cc3[nH]c(cc4nc(cc5[nH]c(cc1n2)c(C)c5CCC(=O)O)C(CCC(=O)NCCCC[C@H](NC(=O)[C@H](CC(C)C)NC(=O)[C@H](CO)NC(=O)[C@H](Cc1ccccc1)NC(=O)[C@H](CCCNC(=N)N)NC(=O)[C@H](CCCCN)NC(=O)[C@@H](NC(=O)[C@H](CC(C)C)NC(=O)[C@H](CCC(N)=O)NC(=O)[C@H](CCC(N)=O)NC(=O)[C@@H](N)C(C)C)[C@@H](C)O)C(N)=O)=C4C)c(C)c3CC [Compound P2-MP] (H-VQQLTKRFSLK(X2)-NH2)"
  altered cell viability: "none"
- MOLECULE: "C=CC1=C(C)c2cc3[nH]c(cc4nc(cc5[nH]c(cc1n2)c(C)c5CCC(=O)NCCCC[C@H](NC(=O)[C@H](CC(C)C)NC(=O)[C@H](CO)NC(=O)[C@H](Cc1ccccc1)NC(=O)[C@H](CCCNC(=N)N)NC(=O)[C@H](CCCCN)NC(=O)[C@@H](NC(=O)[C@H](CC(C)C)NC(=O)[C@H](CCC(N)=O)NC(=O)[C@H](CCC(N)=O)NC(=O)[C@@H](N)C(C)C)[C@@H](C)O)C(N)=O)C(CCC(=O)O)=C4C)c(C)c3C=C [Compound P2-PP] (H-VQQLTKRFSLK(X1)-NH2)"
  altered cell viability: "none"

---

Test system: HBEC-5i cells
RECORDED CONDITIONS: 10 µM on apical side, 24 h incubation; percentage of compound in the basolateral side
Peptide text beside a SMILES is read from it. * marks the point of attachment. X3 = C=CC1=C(C)c2cc3[nH]c(cc4nc(cc5[nH]c(cc1n2)c(C)c5CCC(=O)O)C(CCC(=O)*)=C4C)c(C)c3C=C; X2 = CCC1=C(C)c2cc3[nH]c(cc4nc(cc5[nH]c(cc1n2)c(C)c5CCC(=O)O)C(CCC(=O)*)=C4C)c(C)c3CC; X4 = CCC1=C(C)c2cc3[nH]c(cc4nc(cc5[nH]c(cc1n2)c(C)c5CCC(=O)*)C(CCC(=O)O)=C4C)c(C)c3CC
PROPERTY LABEL: BBB translocation (%)
Enter your answer as a number in %; do not include the unit.

Use the examples below as a reference point.
- COMPOUND: "C=CC1=C(C)c2cc3[nH]c(cc4nc(cc5[nH]c(cc1n2)c(C)c5CCC(=O)O)C(CCC(=O)NCCCC[C@H](NC(=O)[C@H](Cc1ccc(O)cc1)NC(=O)[C@H](CCC(=O)O)NC(=O)[C@H](CCC(=O)O)NC(=O)[C@H](CCC(N)=O)NC(=O)[C@@H](NC(=O)CNC(=O)[C@@H](N)CO)[C@@H](C)O)C(N)=O)=C4C)c(C)c3C=C [Compound P4-PP] (H-SGTQEEYK(X3)-NH2)"
  PROPERTY LABEL: "BBB translocation (%)"
  MEASUREMENT UNIT: "%"
  RESULT: 42.8
- COMPOUND: "CCC1=C(C)c2cc3[nH]c(cc4nc(cc5[nH]c(cc1n2)c(C)c5CCC(=O)N[C@H](C(=O)N[C@@H](CCC(N)=O)C(=O)N[C@@H](CCC(N)=O)C(=O)N[C@@H](CC(C)C)C(=O)N[C@H](C(=O)N[C@@H](CCCCN)C(=O)N[C@@H](CCCNC(=N)N)C(=O)N[C@@H](Cc1ccccc1)C(=O)N[C@@H](CO)C(=O)N[C@@H](CC(C)C)C(N)=O)[C@@H](C)O)C(C)C)C(CCC(=O)O)=C4C)c(C)c3CC [MP-P1] (X4-VQQLTKRFSL-NH2)"
  PROPERTY LABEL: "BBB translocation (%)"
  MEASUREMENT UNIT: "%"
  RESULT: 30

Sample CCC1=C(C)c2cc3[nH]c(cc4nc(cc5[nH]c(cc1n2)c(C)c5CCC(=O)O)C(CCC(=O)NCCCC[C@H](NC(=O)[C@H](CC(C)C)NC(=O)[C@H](CO)NC(=O)[C@H](Cc1ccccc1)NC(=O)[C@H](CCCNC(=N)N)NC(=O)[C@H](CCCCN)NC(=O)[C@@H](NC(=O)[C@H](CC(C)C)NC(=O)[C@H](CCC(N)=O)NC(=O)[C@H](CCC(N)=O)NC(=O)[C@@H](N)C(C)C)[C@@H](C)O)C(N)=O)=C4C)c(C)c3CC [Compound P2-MP] (H-VQQLTKRFSLK(X2)-NH2) , system: HBEC-5i cells. Its BBB translocation (%) is 25.5

Sample CCC1=C(C)c2cc3[nH]c(cc4nc(cc5[nH]c(cc1n2)c(C)c5CCC(=O)O)C(CCC(=O)NCCCC[C@H](NC(=O)[C@H](Cc1ccc(O)cc1)NC(=O)[C@H](CCC(=O)O)NC(=O)[C@H](CCC(=O)O)NC(=O)[C@H](CCC(N)=O)NC(=O)[C@@H](NC(=O)CNC(=O)[C@@H](N)CO)[C@@H](C)O)C(N)=O)=C4C)c(C)c3CC [Compound P4-MP] (H-SGTQEEYK(X2)-NH2) , system: HBEC-5i cells. Its BBB translocation (%) is 45.8
